test: total protein half-life in vivo (active degradation + dilution); higher = more stable protein; conditions: wild type E. coli NCM3722; growth: C-lim chemostat; doubling time 6 h
What total protein half-life in vivo was measured for each of the following?
Numbers only, in h.

# example entries with known answers
chain sequence | total protein half-life in vivo [h]
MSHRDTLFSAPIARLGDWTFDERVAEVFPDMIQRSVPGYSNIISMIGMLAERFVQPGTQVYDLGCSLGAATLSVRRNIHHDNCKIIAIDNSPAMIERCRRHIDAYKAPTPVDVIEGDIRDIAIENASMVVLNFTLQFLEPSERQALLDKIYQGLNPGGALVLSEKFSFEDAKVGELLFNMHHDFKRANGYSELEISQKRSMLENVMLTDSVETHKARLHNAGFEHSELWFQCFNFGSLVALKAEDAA | 4.75
MKKIGVILSGCGVYDGSEIHEAVLTLLAISRSGAQAVCFAPDKQQVDVINHLTGEAMTETRNVLIEAARITRGEIRPLAQADAAELDALIVPGGFGAAKNLSNFASLGSECTVDRELKALAQAMHQAGKPLGFMCIAPAMLPKIFDFPLRLTIGTDIDTAEVLEEMGAEHVPCPVDDIVVDEDNKIVTTPAYMLAQNIAEAASGIDKLVSRVLVLAE [P0ABU5] | 6.9
MFDIGVNLTSSQFAKDRDDVVACAFDAGVNGLLITGTNLRESQQAQKLARQYSSCWSTAGVHPHDSSQWQAATEEAIIELAAQPEVVAIGECGLDFNRNFSTPEEQERAFVAQLRIAADLNMPVFMHCRDAHERFMTLLEPWLDKLPGAVLHCFTGTREEMQACVAHGIYIGITGWVCDERRGLELRELLPLIPAEKLLIETDAPYLLPRDLTPKPSSRRNEPAHLPHILQRIAHWRGEDAAWLAATTDANVKTLFGIAF | 5.44
MQKIVIVANGAPYGSESLFNSLRLAIALREQESNLDLRLFLMSDAVTAGLRGQKPGEGYNIQQMLEILTAQNVPVKLCKTCTDGRGISTLPLIDGVEIGTLVELAQWTLSADKVLTF [P0AB52] | 6.4
MIDLRSDTVTRPSRAMLEAMMAAPVGDDVYGDDPTVNALQDYAAELSGKEAAIFLPTGTQANLVALLSHCERGEEYIVGQAAHNYLFEAGGAAVLGSIQPQPIDAAADGTLPLDKVAMKIKPDDIHFARTKLLSLENTHNGKVLPREYLKEAWEFTRERNLALHVDGARIFNAVVAYGCELKEITQYCDSFTICLSKGLGTPVGSLLVGNRDYIKRAIRWRKMTGGGMRQSGILAAAGIYALKNNVARLQEDHDNAAWMAEQLREAGADVMRQDTNMLFVRVGEENAAALGEYMKARNVLINASPIVRLVTHLDVSREQLAEVAAHWRAFLAR | 5.88

// switching to the query sequence
total protein half-life in vivo in this record for MNKRDAINHIRQFGGRLDRFRKSVGGSGDGGRNAPKRAKSSPKPVNRKTNVFNEQVRYAFHGALQDLKSKPFATFLTVMVIAISLTLPSVCYMVYKNVNQAATQYYPSPQITVYLQKTLDDDAAAGVVAQLQAEQGVEKVNYLSREDALGEFRNWSGFGGALDMLEENPLPAVAVVIPKLDFQGTESLNTLRDRITQINGIDEVRMDDSWFARLAALTGLVGRVSAMIGVLMVAAVFLVIGNSVRLSIFARRDSINVQKLIGATDGFILRPFLYGGALLGFSGALLSLILSEILVLRLSSAVAEVAQVFGTKFDINGLSFDECLLLLLVCSMIGWVAAWLATVQHLRHFTPE [P0AC30] : 5.86
